- Test system: Oryza sativa (ORYSA)
- Type: in vivo
- TEST SETTINGS: crop plant compatibility, 20 g/ha, effect vs untreated controls
Some molecules, each annotated with its measured Post-emergence action against ORYSA in %.
Please give a number only; it is taken to be in %.

[
  {
    "MOLECULE": "CCOC(=O)[C@@H](C)Oc1nn(-c2ncccc2F)c(-c2cncc(F)c2)c1Br",
    "RESULT": 0
  }
]

Could you now consider this next molecule?
Problem: Quick one: Post-emergence action against ORYSA in % for "CS(=O)(=O)NC(=O)COc1nn(-c2ncccc2F)c(-c2ccc(F)nc2)c1Br" ?
Result: 20

These entries and their values trace back to patent US20240041042A1.
